# System: RARg:RXRa (NR concentration 270 nM, RXRa partner concentration 90 nM)
# experimental_details: PBM binding z-score (relative to random genomic background probes); higher = stronger binding; sequences stand for … in GC…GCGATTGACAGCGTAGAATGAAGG
property_measured: PBM binding z-score
Keep it simple and answer with nothing but the number.

Worked examples follow.
| residues | target_or_system | PBM binding z-score |
| --- | --- | --- |
| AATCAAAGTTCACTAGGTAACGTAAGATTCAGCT | RARg:RXRa (NR concentration 270 nM, RXRa partner concentration 90 nM) | 4.44 |
| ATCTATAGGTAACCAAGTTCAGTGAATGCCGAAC | RARg:RXRa (NR concentration 270 nM, RXRa partner concentration 90 nM) | 0.853 |
| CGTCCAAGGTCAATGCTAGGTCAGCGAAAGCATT | RARg:RXRa (NR concentration 270 nM, RXRa partner concentration 90 nM) | 7.74 |

Ask: Bench note: what PBM binding z-score did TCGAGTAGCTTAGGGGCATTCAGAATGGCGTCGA show?
Result: -0.284

Ask: Which PBM binding z-score is listed for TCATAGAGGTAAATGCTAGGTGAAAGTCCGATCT ?
Result: 0.753

Ask: # get_value(readout='PBM binding z-score', item= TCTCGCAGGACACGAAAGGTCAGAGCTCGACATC )
Result: 4.42

Ask: If you can, please state the reported PBM binding z-score value of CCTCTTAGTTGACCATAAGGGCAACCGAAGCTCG .
Result: 1.17

---

# Tested on: PPARg:RXRa (NR concentration 180 nM, RXRa partner concentration 90 nM)
# experimental_details: PBM binding z-score (relative to random genomic background probes); higher = stronger binding; sequences stand for … in GC…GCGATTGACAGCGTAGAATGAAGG
property_measured: PBM binding z-score
Give only the figure.

| residues | PBM binding z-score |
| --- | --- |
| TCTTGTAGATCAAGCAGGTCAAGAAAGCCTGAGT | 0.0976 |
| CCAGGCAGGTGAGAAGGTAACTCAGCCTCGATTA | 0.238 |
| CTCGAAAGGTCGTGCTCAGCTGAGTATACCAAAC | 2.52 |

# context switch: different sequence, same PBM binding z-score
Ask: Value lookup for PBM binding z-score; key = GCGACTGGCGCATCAGCAGGTTACCATAACTTAA
Result: -0.0523

---

# Test system: VDR:RXRa (NR concentration 270 nM, RXRa partner concentration 90 nM)
# experimental_details: PBM binding z-score (relative to random genomic background probes); higher = stronger binding; sequences stand for … in GC…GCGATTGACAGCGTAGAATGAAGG
In this scheme, each record receives a class according to its PBM binding z-score; the ranges are b0 (below 0.9), b1 (0.9 to below 3), b2 (3 or more)

| residues | target_or_system | label_class |
| --- | --- | --- |
| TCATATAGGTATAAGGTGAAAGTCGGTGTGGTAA | VDR:RXRa (NR concentration 270 nM, RXRa partner concentration 90 nM) | b1 |

Ask: GET /class?item= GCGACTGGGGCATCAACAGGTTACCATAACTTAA
Result: b0

Ask: Which PBM binding z-score category applies to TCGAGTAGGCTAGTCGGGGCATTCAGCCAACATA here?
Result: b0

Ask: Could you place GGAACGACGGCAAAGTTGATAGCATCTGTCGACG in its proper category? Many thanks.
Result: b0

Ask: Could you tell me which band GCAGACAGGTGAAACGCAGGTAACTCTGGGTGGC belongs to?
Result: b0

Ask: Kindly state the category for this sequence: CCTACTGGGCCACGAAAGGTCGTTGATTCAGTGA
Result: b1

Ask: Which class does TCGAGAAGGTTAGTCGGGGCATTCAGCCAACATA fall in?
Result: b2

---

# System: RARa homodimer (NR concentration 270 nM)
# experimental_details: PBM binding z-score (relative to random genomic background probes); higher = stronger binding; sequences stand for … in GC…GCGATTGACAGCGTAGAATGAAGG
# label = MET if PBM binding z-score >= 0.5 else NOT MET

Here's what some known entries look like.
| residues | label_class |
| --- | --- |
| TTACCAAGGTGAAGGTCGTTAATCCCTCTGTAGA | NOT MET |
| CCGACTGGGGCGAAGGTTACCATACTCAGTACGA | NOT MET |

Ask: Exam item: decide whether the reported PBM binding z-score for CCTACTGAGCCAAAGGTCATTGATTCCAATGCTC is at least 0.5.
Result: MET

Ask: Given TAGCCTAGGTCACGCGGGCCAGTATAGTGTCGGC , state whether its PBM binding z-score is at least 0.5.
Result: NOT MET

Ask: Hi, just wondering whether AGTCAAAGTTCACTAGGTAACGTTAGATTCAGCT shows PBM binding z-score of 0.5 or higher.
Result: MET

Ask: Decide: is the reported value of PBM binding z-score for TCATGTAGATCAAGCAGGTTAAGAAAGCCTGAGT equal to or greater than 0.5?
Result: NOT MET

Ask: Would you say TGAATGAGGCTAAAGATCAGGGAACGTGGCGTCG shows PBM binding z-score at minimum 0.5?
Result: NOT MET

Ask: Assess whether reported PBM binding z-score for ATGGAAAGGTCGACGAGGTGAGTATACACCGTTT sits at 0.5 or higher.
Result: NOT MET

Ask: Could you please find out whether GATACAGGGTCAGCTAGAGGCCAGATTATGGAAA has PBM binding z-score that meets 0.5 or exceeds it?
Result: MET

---

# Tested on: PPARg:RXRa IVT, anti-PPARg (NR concentration 270 nM, RXRa partner concentration 90 nM)
# experimental_details: PBM binding z-score (relative to random genomic background probes); higher = stronger binding; sequences stand for … in GC…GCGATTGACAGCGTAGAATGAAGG
Label 0 (no) if PBM binding z-score falls below 2; label 1 (yes) in every other case.

| residues | target_or_system | label_class |
| --- | --- | --- |
| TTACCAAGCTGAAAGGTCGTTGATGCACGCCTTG | PPARg:RXRa IVT, anti-PPARg (NR concentration 270 nM, RXRa partner concentration 90 nM) | 0 (no) |
| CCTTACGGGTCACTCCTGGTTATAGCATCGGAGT | PPARg:RXRa IVT, anti-PPARg (NR concentration 270 nM, RXRa partner concentration 90 nM) | 1 (yes) |
| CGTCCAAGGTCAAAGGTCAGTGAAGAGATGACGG | PPARg:RXRa IVT, anti-PPARg (NR concentration 270 nM, RXRa partner concentration 90 nM) | 1 (yes) |
| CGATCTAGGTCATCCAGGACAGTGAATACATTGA | PPARg:RXRa IVT, anti-PPARg (NR concentration 270 nM, RXRa partner concentration 90 nM) | 1 (yes) |
| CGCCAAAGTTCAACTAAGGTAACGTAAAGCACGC | PPARg:RXRa IVT, anti-PPARg (NR concentration 270 nM, RXRa partner concentration 90 nM) | 0 (no) |
| CCTGCTAGGTCATGCTCAGCTAATCTACAGTATG | PPARg:RXRa IVT, anti-PPARg (NR concentration 270 nM, RXRa partner concentration 90 nM) | 1 (yes) |

Ask: Please tell me: is the sequence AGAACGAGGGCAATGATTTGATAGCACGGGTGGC at or over 2 in terms of PBM binding z-score?
Result: 1 (yes)

Ask: Is reported PBM binding z-score greater than or equal to 2 here: ATCGAAAGGTCGAGATGAGTATAGAGAAAGGGAA
Result: 0 (no)

Ask: Item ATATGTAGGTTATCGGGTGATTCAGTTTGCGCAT with PBM binding z-score of 2 or above?
Result: 1 (yes)

Ask: Quick check: does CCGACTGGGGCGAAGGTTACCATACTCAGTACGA have PBM binding z-score greater than or equal to 2?
Result: 1 (yes)

Ask: Evaluate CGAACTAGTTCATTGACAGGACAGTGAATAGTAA : PBM binding z-score at minimum 2?
Result: 0 (no)

Ask: Reported PBM binding z-score at or above 2? CCTATTAGTTGACCATACGGGCAACCGAAGCTCG
Result: 0 (no)

Ask: Is the recorded value of PBM binding z-score equal to or greater than 2 for this sequence? TAGCCCAGGTCATGGGCCAGTATACCACGCGAAC
Result: 1 (yes)

Ask: I'd appreciate it if you could say whether ATCTCTAGGTAAGACTCAGTTCAGTGATGAACGC has PBM binding z-score at least equal to 2.
Result: 0 (no)

Ask: // inclusive: PBM binding z-score at least 2? input: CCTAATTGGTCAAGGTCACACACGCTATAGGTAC
Result: 1 (yes)

Ask: Record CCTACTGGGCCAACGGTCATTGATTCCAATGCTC ; criterion: PBM binding z-score no lower than 2. Met?
Result: 1 (yes)
